- Test system: U251 CNS
- runDescription: NCI tumour cell line growth inhibition, 48 h

molecule | TGI
COC(=O)c1ccc(/C=C/S(=O)(=O)c2ccccc2)cc1 | > 100 µM
CCCCN1CCC(O)(c2cc(C(=O)O)[nH]c2-c2cc(C)no2)C1=O (stereo not drawn) | > 100 µM
c1ccc(N2N=C3N(c4ccccc4)C2N3c2ccccc2)cc1 | > 100 µM

====

- Tested on: SK-OV-3 ovarian
- runDescription: NCI tumour cell line growth inhibition, 48 h
Where a SMILES comes first, the peptide text is derived from it. [ ]: non-standard residue; d: D form. The star is where a group is joined. ξ: configuration not given here. ξPhe(4-NO2) = NC(Cc1ccc([N+](=O)[O-])cc1)C(=O)O; Boc = CC(C)(C)OC(=O)*
The entries below come with measured TGI values attached.
metricName: TGI

compound | measured
CC(=O)OCc1nnn2c1CCC2 | > 100 µM
N[C@@H](Cc1ccc2oc3cc(=O)c4ccccc4c-3nc2c1)C(=O)O | > 100 µM
CCNC(=O)CNC(=O)C(Cc1ccc([N+](=O)[O-])cc1)NC(=O)OC(C)(C)C (stereo not drawn) (Boc-[ξPhe(4-NO2)]-Gly-NHEt) | > 100 µM
O=C1/C(=C\c2cccc(Oc3ccccc3)c2)SC(c2ccccc2)N1c1cccc(Cl)c1 (stereo not drawn) | > 100 µM
COc1ccc(OCC(C)(C)O)cc1 | > 100 µM
C[C@@H]1OC(=O)NN=C1c1ccc(-c2ccc(F)cc2)c(C(F)(F)F)c1 | 27.5 µM
COCC(=O)NC/C=C/c1ccc2ncnc(Nc3ccc(Oc4ccc(C)nc4)c(C)c3)c2c1 | 4.52 µM
CCOC(=O)/C=C(/C(=O)OCC)n1ccc(=O)n(CC(=O)OCC)c1=O | 27.6 µM
Nc1ncnc2c1cnn2COCC(O)CO (stereo not drawn) | > 100 µM
CC(=O)OC1(C#N)CC2OC1C1N=NN(C(=O)OC(C)(C)C)C21 (stereo not drawn) | > 100 µM
CCCC(=O)Nc1c(I)cc(I)c(CC(CC)C(=O)O)c1I (stereo not drawn) | > 100 µM
Cn1c(O)c(C=Nc2ccc(Cl)cc2Cl)c(=O)n(C)c1=O | > 100 µM
CCOC(OCC)[C@H](N)[C@@H](O)[C@@H](O)[C@H]1COC(C)(C)O1 | > 100 µM
COc1ccc(Br)c(C=Nc2cccc3cc(OC)c(OC)cc23)c1 | > 100 µM
C/C(=N\Nc1nc2ccccc2o1)c1cc2ccccc2cn1 | 8.15 µM
Cc1nc2ccccc2c(/C=C/c2ccccc2)c1C(=O)/C=C/c1ccccc1 | > 100 µM
CCCCN1CCC(O)(c2cc(C(=O)O)[nH]c2-c2cc(C)no2)C1=O (stereo not drawn) | > 100 µM
CCCCCC(=C/c1ccccc1)/C=N/N=C(N)N | 10.8 µM

====

- Tested on: U251 CNS
- runDescription: NCI tumour cell line growth inhibition, 48 h
Measured TGI values are reported for all entries that follow.

compound | TGI
OC[C@@H](O)[C@H](O)[C@@H](O)/C=N/Nc1ccc(Cl)nn1 | > 100 µM
CC(C)=CCc1c(O)c(C(=O)CC(C)C)c(O)c2c(-c3ccccc3)cc(=O)oc12 | > 50 µM
COc1c(N2CCN(CN3C(=O)C(=O)c4ccccc43)C(C)C2)c(F)cc2c(=O)c(C(=O)O)cn(C3CC3)c12 (stereo not drawn) | > 100 µM
